Numbers sourced from PubChem BioAssay (NCI).

Tested on: PC-3 prostate
ASSAY: NCI tumour cell line growth inhibition, 48 h
PROPERTY: TGI (µM)

INSERT INTO results (molecule, unit_of_measurement, inequality_sign, observed_value) VALUES
  ('O=C(CCCC1Cc2ccccc2C1=O)c1ccccc1 (centres undefined)', 'µM', '>', 100),
  ('O=c1[nH]nc(-c2ccc([N+](=O)[O-])cc2)n1/N=C/c1ccc([N+](=O)[O-])cc1', 'µM', '>', 100),
  ('O=C1c2n[nH]nc2C(=O)c2n[nH]nc21', 'µM', '>', 100),
  ('C=C1CC[C@@]2(C#N)[C@H]3[C@H](CC[C@@H]2C)[C@@H](C)C[C@@H](CC(C)(C)C#N)[C@H]13', 'µM', '=', 30.5),
  ('CCN(CC)c1ccc(/C=c2\nc(-c3ccccc3)n3c2nc2ccccc23)cc1', 'µM', '=', 8.7),
  ('COc1ccc(/C=C2\CN(C(=O)C(Cl)Cl)C/C(=C\c3ccc(OC)c(OC)c3)C2=O)cc1OC', 'µM', '=', 2.4),
  ('Cn1ccc2c(NCCN)c3c(c(NCCN)c21)C(=O)c1ccccc1C3=O', 'µM', '=', 3.18),
  ('O=C(/C=C/C=C/c1ccccc1)CCc1ccccc1', 'µM', '>', 100),
  ('[N-]=[N+]=C(C(=O)OCC#CCOC(=O)C(=[N+]=[N-])S(=O)(=O)c1ccccc1)S(=O)(=O)c1ccccc1', 'µM', '>', 10);

====

Test system: RPMI-8226 leukemia
ASSAY: NCI tumour cell line growth inhibition, 48 h
PROPERTY: TGI

INSERT INTO measurements (molecule, measurement_target, observed_value) VALUES
  ('Cc1ccc(S(=O)(=O)Nc2nc3ccccc3c(=O)n2C2CCCCC2)cc1', 'RPMI-8226 leukemia', '> 100 µM'),
  ('Cc1ccc(S(=O)(=O)N(CC(O)c2ccccc2)c2ccccc2F)cc1 (configuration not stated)', 'RPMI-8226 leukemia', '39 µM'),
  ('CN1[C@@H]2CCCC[C@H]2N(C)P1(=O)C(O)/C=C/c1ccccc1 (some centres not stated)', 'RPMI-8226 leukemia', '> 100 µM'),
  ('Cc1cc(O)c(C(=O)CC2(O)C(=O)Nc3c(Cl)cc(Cl)cc32)c(=O)o1 (configuration not stated)', 'RPMI-8226 leukemia', '> 100 µM'),
  ('CCOC(=O)c1[nH]cnc1/N=N/N(C)N', 'RPMI-8226 leukemia', '> 100 µM'),
  ('O=C1c2cc([N+](=O)[O-])cnc2S(=O)(=O)N1c1ccc(Br)cc1', 'RPMI-8226 leukemia', '> 100 µM'),
  ('C=C1CC[C@@]2(C#N)[C@H]3[C@H](CC[C@@H]2C)[C@@H](C)C[C@@H](CC(C)(C)C#N)[C@H]13', 'RPMI-8226 leukemia', '26.3 µM'),
  ('CCOc1cc2c(cnc3c4cc(OC)c(OC)cc4ccc23)cc1OC', 'RPMI-8226 leukemia', '> 100 µM'),
  ('NNC(=Nc1ccccc1)SCc1ccccc1', 'RPMI-8226 leukemia', '> 100 µM'),
  ('[N-]=[N+]=C(C(=O)OCC#CCOC(=O)C(=[N+]=[N-])S(=O)(=O)c1ccccc1)S(=O)(=O)c1ccccc1', 'RPMI-8226 leukemia', '> 10 µM'),
  ('Cc1ccc2ccc(=O)oc2c1', 'RPMI-8226 leukemia', '> 100 µM'),
  ('CC(=O)N1CC(C)(C)c2c1cc(C)c(O)c2C', 'RPMI-8226 leukemia', '> 100 µM');

====

Test system: NCI-H226 lung
ASSAY: NCI tumour cell line growth inhibition, 48 h
PROPERTY: TGI

INSERT INTO measurements (compound, observed_value) VALUES
  ('C[C@]12CC[C@H](O)CC1=CC[C@@H]1C2CC[C@]2(C)c3nn(-c4ccc(F)cc4)nc3CC12 (stereo not given in full)', '> 100 µM'),
  ('CCOC(=O)CCCn1c(SC)nc2cc(-c3ccco3)[nH]c2c1=O', '> 100 µM'),
  ('CN(C)NC1=NS(=O)(=O)c2cc3c(cc2S1)N(N(C)C)C(=O)c1cc2c(cc1N(N(C)C)C3=O)SC(NN(C)C)=NS2(=O)=O', '> 10 µM'),
  ('CCN(CC)c1ccc2c(c1)Oc1ccc(N(C(C)=O)c3ccccc3)cc1C21OC(=O)c2ccccc21 (stereo not given)', '> 100 µM'),
  ('Cc1cc(O)c(C(=O)CC2(O)C(=O)Nc3c(Cl)cc(Cl)cc32)c(=O)o1 (stereo not given)', '> 100 µM'),
  ('O=S(=O)(O)c1ccc2c(N=Nc3ccccc3)c(O)c(S(=O)(=O)O)cc2c1', '> 100 µM'),
  ('[N-]=[N+]=C(C(=O)OCC#CCOC(=O)C(=[N+]=[N-])S(=O)(=O)c1ccccc1)S(=O)(=O)c1ccccc1', '> 10 µM'),
  ('COC(=O)c1ccc(CCC2=CC(=O)C(Br)=CC2=O)cc1', '30.5 µM'),
  ('CN(C)CC(/C(Cc1ccccc1)=N\NC(=O)c1ccncc1)c1ccccc1 (stereo not given)', '> 100 µM'),
  ('CCN(CC)CCOc1ccc(Nc2ncc3cc(-c4ccc(O)cc4)c(=O)n(C)c3n2)cc1', '22.6 µM'),
  ('c1ccc2c(c1)CCN(C1=NCCO1)C2', '> 10 µM'),
  ('C[C@@H]1O[C@@H](O[C@@H]2[C@@H](O)[C@H](OCCc3ccc(O)c(O)c3)O[C@H](COC(=O)/C=C/c3ccc(O)c(O)c3)[C@H]2O)[C@H](O)[C@H](O)[C@H]1O', '> 100 µM'),
  ('COc1ccc(/C=C2\Sc3nnc(C)n3N=C2c2cc(F)c(Cl)cc2Cl)cc1OC', '51.8 µM'),
  ('CCOC(=O)c1[nH]cnc1/N=N/N(C)N', '> 100 µM'),
  ('Cc1ccc2ccc(=O)oc2c1', '> 100 µM'),
  ('O=C1OC(C2Cc3ccccc3C2=O)c2ccccc21 (stereo not given)', '> 100 µM'),
  ('CC(=O)Nc1ccc(N2C(=O)CS(=O)(=O)C2c2cccc(Oc3ccccc3)c2)cc1 (stereo not given)', '35.8 µM'),
  ('Cc1ccc(S(=O)(=O)N(CC(O)c2ccccc2)c2ccccc2F)cc1 (stereo not given)', '48.7 µM'),
  ('CCC(C)NC(=S)N/N=C(\C)c1ccccn1 (stereo not given)', '6.83 µM'),
  ('CC(=O)N1CC(C)(C)c2c1cc(C)c(O)c2C', '> 100 µM'),
  ('COc1cc2c(c(OC)c1OC)-c1ccc(SC)c(=O)cc1[C@@H](NC(=O)c1ccc(OC(C)=O)cc1)CC2', '0.0528 µM'),
  ('COc1ccccc1C1=C2C(=O)N(C)C(c3ccccc3OC)=C2C(=O)N1C', '> 100 µM'),
  ('CC(/C=N/N(C)C1=NCCCCN1)=N/N(C)C1=NCCCCN1', '> 100 µM'),
  ('CC(=O)Nc1nc(SCc2ccccc2)c2ncn(C(C)=O)c2n1', '> 100 µM'),
  ('O=C1C(Cl)=C(Oc2ccc([N+](=O)[O-])cc2)C(=O)c2c(O)ccc(O)c21', '> 100 µM');

====

System: MDA-MB-231 breast
ASSAY: NCI tumour cell line growth inhibition, 48 h
Property: TGI; scope: individual compounds
PROPERTY: TGI

INSERT INTO results (compound, observed_value) VALUES
  ('CCOC(=O)CCCn1c(SC)nc2cc(-c3ccco3)[nH]c2c1=O', '81.2 µM'),
  ('c1cc2c(cc1C(N1CCNCC1)N1CCNCC1)OCO2', '> 100 µM'),
  ('CN(C)c1ccc(/C=N/n2c(-c3ccccc3)nc3ccccc3c2=O)cc1', '> 100 µM'),
  ('CN1[C@@H]2CCCC[C@H]2N(C)P1(=O)C(O)/C=C/c1ccccc1 (some centres not stated)', '> 100 µM'),
  ('CC1=NC2(CCCCC2)N(Cl)C(=O)C1SC#N (configuration not stated)', '36.5 µM'),
  ('NC(CCl)=NC1CN2CCC1CC2 (configuration not stated)', '> 100 µM'),
  ('[N-]=[N+]=NC1=NNC2(C(=O)N1)c1ccccc1-c1ccccc12', '> 100 µM');

====

System: MDA-MB-231 breast
ASSAY: NCI tumour cell line growth inhibition, 48 h
PROPERTY: TGI (µM)

INSERT INTO assay_data (molecule, unit_of_measurement, inequality_sign, observed_value) VALUES
  ('C/C=C1/CN2[C@@H](C3=C[C@@H]4[C@@H]5N(C3=O)c3ccccc3[C@@]53CCN5C/C(=C/C)[C@@H]4C[C@H]53)C[C@@]34c5ccccc5N5C(=O)CC=C([C@H]1C[C@H]23)[C@H]54', 'µM', '=', 9.19),
  ('COc1ccc2c(c1)c(=O)c1c(NCCCN(C)CCCNc3ccc4c(=O)n(CCN(C)C)c(=O)n5c6ccc(OC)cc6c(=O)c3c45)ccc3c(=O)n(CCN(C)C)c(=O)n2c31', 'µM', '=', 2.56),
  ('CCCCCNC(=O)[C@@H]1CCCN2C(=O)CC[C@H](NC(=O)[C@H](Cc3ccc(OP(=O)(O)O)cc3)NC(C)=O)C(=O)N12', 'µM', '>', 25),
  ('N#Cc1ccc(OC(=O)c2ccc(N=C(N)N)cc2)cc1', 'µM', '>', 100),
  ('CC1(C)C2CCC1(C)C(N/C(=C(/C(Cl)=C(Cl)Cl)[N+](=O)[O-])n1nnc3ccccc31)C2 (stereo unspecified)', 'µM', '=', 53.7),
  ('CCN(CC)CCOc1ccc(Nc2ncc3cc(-c4ccc(O)cc4)c(=O)n(C)c3n2)cc1', 'µM', '=', 7.36);
